# assay_info: pKa analysis by capillary electrophoresis (pKa PRO Analyzer, co-solvent method)
# Format: physicochemical
# cond: methanol/aqueous co-solvent buffers, co-solvent method (60% to 30% methanol buffers), pH range 1.7-11.2, read-out: 2nd pKa
Response key: true (1) means pKa >= 9; false (0) means pKa < 9.

Recorded results for 5 compounds are shown here.
C[C@H]1CCN1c1nc2c(c(-c3cccnc3)n1)CCC2 false (0)
C[C@H]1CCN1c1nc2c(c(-c3ccc(N4CCNCC4)cc3)n1)CCC2 false (0)
C[C@H]1CCN1c1nc2c(c(-c3ccc(CNS(C)(=O)=O)s3)n1)CCC2 true (1)
C[C@H]1CCN1c1nc2c(c(-c3ccc(C4(N)COC4)cc3)n1)CCC2 false (0)
C[C@H]1CCN1c1nc2c(c(-c3ccc(CN)s3)n1)CCC2 false (0)

[ask] Record C[C@H]1CCN1c1nc2c(c(-c3cccc(S(N)(=O)=O)c3)n1)CCC2 ; criterion: pKa no lower than 9. Met?
[reply] true (1)

[ask] Hi team, for C[C@H]1CCN1c1nc2c(c(-c3ccc4c(O)nc(O)cc4c3)n1)CCC2 , is the recorded pKa at or above 9?
[reply] false (0)
